Here, each record is paired with measured IC50 data.
Study system: Phospho-EGFR (Tyr1068) in A431 cells (Homo sapiens, UniProt P00533)
Construct: endogenous in cells
Assay method text: HTRF pEGFR/total EGFR in A431 cells with EGF stimulation
Stated conditions: ratio pEGFR/total EGFR, compound 2.5 hours then 100 ng/ml EGF 30 mins

Please review the following examples before continuing.
>  <Compound>
C#Cc1cc(=O)n2c3nc(ncc13)Nc1ccc(N3CCN(C)CC3)c(c1)COCCC2 [Example 196]

>  <Result>
> 3 µM

$$$$
>  <Compound>
C#Cc1cc(=O)n(C)c2nc(Nc3ccc(N(C)CCN(C)C)c(-c4cnn(C)c4)c3)ncc12 [Example 47]

>  <Result>
> 3 µM

$$$$
>  <Compound>
C#Cc1cc(=O)n(C2CCOC2)c2nc(Nc3ccc(N4CCN(C)CC4)cc3)ncc12 (centres unmarked) [Example 105]

>  <Result>
> 3 µM

$$$$

I have this compound here, C#Cc1cc(=O)n(-c2ccc(OC)cc2OC)c2nc(Nc3ccc(N(C)CCN(C)C)cc3)ncc12 [Example 86] , and I need its recorded IC50.
1 to 3 µM

Cool, now C#Cc1cc(=O)n(-c2cccc([N+](=O)[O-])c2)c2nc(Nc3ccccc3OC)ncc12 [Example 54]
> 3 µM

* * *

Measured pIC50, listed per entry.
Study system: CtermHisTag-mEGFR Wild type (Homo sapiens, UniProt P00533)
Sequence (P00533 whole entry): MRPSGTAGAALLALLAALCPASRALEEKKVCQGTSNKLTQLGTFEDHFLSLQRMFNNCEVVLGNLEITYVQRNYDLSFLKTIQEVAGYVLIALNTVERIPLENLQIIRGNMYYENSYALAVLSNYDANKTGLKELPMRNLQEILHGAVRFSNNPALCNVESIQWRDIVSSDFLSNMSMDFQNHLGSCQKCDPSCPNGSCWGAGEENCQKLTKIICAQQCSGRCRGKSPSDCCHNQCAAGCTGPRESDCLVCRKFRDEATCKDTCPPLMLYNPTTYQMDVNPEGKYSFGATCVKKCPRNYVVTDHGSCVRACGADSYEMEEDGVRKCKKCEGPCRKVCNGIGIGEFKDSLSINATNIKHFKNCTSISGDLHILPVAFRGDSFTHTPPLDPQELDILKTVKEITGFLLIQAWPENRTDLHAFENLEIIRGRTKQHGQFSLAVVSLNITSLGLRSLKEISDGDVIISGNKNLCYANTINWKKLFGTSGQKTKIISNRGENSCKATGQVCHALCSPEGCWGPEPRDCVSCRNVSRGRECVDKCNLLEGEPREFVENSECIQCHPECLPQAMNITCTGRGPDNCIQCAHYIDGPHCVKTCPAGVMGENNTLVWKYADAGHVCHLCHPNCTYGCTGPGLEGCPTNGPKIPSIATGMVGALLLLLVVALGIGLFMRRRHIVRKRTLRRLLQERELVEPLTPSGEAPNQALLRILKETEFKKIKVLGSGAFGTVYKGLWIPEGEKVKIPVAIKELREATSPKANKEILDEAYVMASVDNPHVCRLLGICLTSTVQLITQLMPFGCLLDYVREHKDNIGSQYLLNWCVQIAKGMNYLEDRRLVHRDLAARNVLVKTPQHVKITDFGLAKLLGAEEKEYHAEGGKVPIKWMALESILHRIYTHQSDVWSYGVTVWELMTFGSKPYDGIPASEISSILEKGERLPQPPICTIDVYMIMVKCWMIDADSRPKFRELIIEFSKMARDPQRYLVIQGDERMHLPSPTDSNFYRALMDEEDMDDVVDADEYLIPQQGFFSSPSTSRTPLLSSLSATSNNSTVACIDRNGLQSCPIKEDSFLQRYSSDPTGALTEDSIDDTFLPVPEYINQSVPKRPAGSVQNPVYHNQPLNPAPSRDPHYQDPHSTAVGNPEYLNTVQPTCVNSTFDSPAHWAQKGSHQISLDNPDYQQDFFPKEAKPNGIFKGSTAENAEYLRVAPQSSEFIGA
Assay method text: biochemical
pIC50: −log10 of the molar value.

>  <Molecule>
C#Cc1cc(=O)n(-c2ccccc2)c2nc(Nc3ccc(N4CCC(N5CC(F)(CO)C5)CC4)cc3)ncc12

>  <Study system>
CtermHisTag-mEGFR Wild type (Homo sapiens, UniProt P00533)

>  <pIC50>
> 6.00

$$$$
>  <Molecule>
C#Cc1cc(=O)n2c3nc(ncc13)Nc1ccc(N3CCN(C)CC3)c(c1)CNCCC2

>  <Study system>
CtermHisTag-mEGFR Wild type (Homo sapiens, UniProt P00533)

>  <pIC50>
< 5.00

$$$$
>  <Molecule>
C#Cc1c(C2CC2)c(=O)n(C)c2nc(Nc3ccc(N4CCN(C)CC4)cc3)ncc12

>  <Study system>
CtermHisTag-mEGFR Wild type (Homo sapiens, UniProt P00533)

>  <pIC50>
< 5.00

$$$$
>  <Molecule>
C#Cc1cc(=O)n(-c2ccccc2)c2nc(Nc3ccc(N4CCOCC4)cc3)ncc12

>  <Study system>
CtermHisTag-mEGFR Wild type (Homo sapiens, UniProt P00533)

>  <pIC50>
> 6.00

$$$$
>  <Molecule>
C#Cc1cc(=O)n([C@H]2CC[C@@H](NC(=O)CCCN(C)C)CC2)c2nc(Nc3ccc(N4CCN(C)CC4)cc3)ncc12

>  <Study system>
CtermHisTag-mEGFR Wild type (Homo sapiens, UniProt P00533)

>  <pIC50>
< 5.00

$$$$

I am curious: what pIC50 value has been reported for "C#Cc1cc(=O)n(-c2ccc(NS(C)(=O)=O)cc2)c2nc(Nc3ccccc3OC)ncc12" ?
> 6.00

And for C#Cc1cc(=O)n(C2CCCC2O)c2nc(Nc3ccc(N4CCN(C)CC4)cc3)ncc12 (stereo not shown) ?
5.00 to 6.00

Check "C=Cc1cc(=O)n(-c2ccccc2OC)c2nc(Nc3ccccc3OC)ncc12" too.
< 5.00

Another molecule to check: "C#Cc1cc(=O)n(C2CCCC2)c2nc(Nc3cccc(N(C)[C@H]4C[C@H](CS(C)(=O)=O)C4)c3)ncc12"
> 6.00

Also C#Cc1cc(=O)n(C2CNC(=O)C2)c2nc(Nc3ccc(N4CCN(C)CC4)cc3)ncc12 (stereo not shown) ?
< 5.00

// repeat for "C=Cc1c(-c2ccccc2Cl)c(=O)n(C)c2nc(Nc3ccc(OCCN(C)C)cc3)ncc12" and report
< 5.00

Input "C#Cc1c(C)c(=O)n(Cc2ccno2)c2nc(Nc3ccc(N4CCN(C)CC4)cc3)ncc12"
5.00 to 6.00

Same question, "C#Cc1c(-c2cccs2)c(=O)n(C)c2nc(Nc3ccc(N4CCN(C)CC4)cc3)ncc12" this time
5.00 to 6.00

Thanks! And "C#Cc1cc(=O)n2c3nc(ncc13)Nc1ccc(N3CCN(C)CC3)c(c1)OCCCC2" ?
> 6.00

Likewise for "C#Cc1cc(=O)n([C@H]2CC[C@@H](NC(=O)CCN(C)C)CC2)c2nc(Nc3ccc(N4CCN(C)CC4)cc3)ncc12" ?
> 6.00

Next record, please: "C#Cc1cc(=O)n2c3nc(ncc13)Nc1ccc(N3CCN(C)CC3)c(c1)NCCCC2"
< 5.00

* * *

# pIC50 annotations
Study system: Phospho-EGFR (Tyr1068) in A431 cells (Homo sapiens, UniProt P00533)
Construct: endogenous in cells
Assay method text: HTRF pEGFR/total EGFR in A431 cells with EGF stimulation
Stated conditions: ratio pEGFR/total EGFR, compound 2.5 hours then 100 ng/ml EGF 30 mins
pIC50: −log10 of the molar value.

For orientation, consider the following solved cases.
>  <Compound>
C#Cc1cc(=O)n([C@H]2CC[C@@H](N(C)C(=O)CN(C)C)CC2)c2nc(Nc3ccccc3OC)ncc12 [Example 101]

>  <pIC50>
< 5.52

$$$$
>  <Compound>
C#Cc1cc(=O)n(C)c2nc(Nc3ccc(N4CCN(C)CC4)c(NC(=O)NC4CCCC4)c3)ncc12 [Example 219]

>  <pIC50>
< 5.52

$$$$
>  <Compound>
C#Cc1cc(=O)n2c3nc(ncc13)Nc1ccc(N3CCN(C)CC3)c(c1)COCCCC2 [Example 231]

>  <pIC50>
5.52 to 6.00

$$$$
>  <Compound>
C#Cc1cc(=O)n(-c2ccccc2)c2nc(Nc3ccc(N4CCC(N5CC(C(C)(C)O)C5)CC4)cc3)ncc12 [Example 40]

>  <pIC50>
5.52 to 6.00

$$$$
>  <Compound>
C#Cc1cc(=O)n(-c2ccccc2)c2nc(Nc3ccc(N(C)C(=O)CN(C)C)cc3OC)ncc12 [Example 7]

>  <pIC50>
< 5.52

$$$$
>  <Compound>
C#Cc1cc(=O)n(CC2CCNC2=O)c2nc(Nc3ccc(N4CCN(C)CC4)cc3)ncc12 (stereo not shown) [Example 119]

>  <pIC50>
< 5.52

$$$$
>  <Compound>
C#Cc1c(C)c(=O)n2c3nc(ncc13)Nc1ccc(N3CCN(C)CC3)c(c1)OCCCCC2 [Example 229]

>  <pIC50>
> 6.30

$$$$
>  <Compound>
C#Cc1c(-c2ccccc2Cl)c(=O)n(C)c2nc(Nc3cccc(CO)c3)ncc12 [Example 132]

>  <pIC50>
5.52 to 6.00

$$$$
>  <Compound>
C#Cc1cc(=O)n(-c2ccccc2)c2nc(Nc3ccc(C4CCNCC4)cc3)ncc12 [Example 22]

>  <pIC50>
< 5.52

$$$$
>  <Compound>
C#Cc1c(C)c(=O)n(C)c2nc(Nc3ccc(N4CCN(C)CC4)cc3)ncc12 [Example 149]

>  <pIC50>
< 5.52

$$$$

Look up pIC50 for this compound: C#Cc1c(-c2ccccc2Cl)c(=O)n(C)c2nc(Nc3cccc(OC)c3)ncc12 [Example 131]
< 5.52

One more compound: C#Cc1cc(=O)n(C2CCCC2)c2nc(Nc3cccc4c3CN(C)C4)ncc12 [Example 184]
< 5.52

Also need C#Cc1cc(=O)n([C@H]2CC[C@@H](NC(C)=O)CC2)c2nc(Nc3ccc(N(C)CCN(C)C)cc3)ncc12 [Example 79] , thanks.
5.52 to 6.00

Also C#Cc1cc(=O)n(C)c2nc(Nc3ccc(N4CCN(C)CC4)c(OCCCC4CCCC4)c3)ncc12 [Example 212] , if possible.
< 5.52

Same read-out for C#Cc1cc(=O)n(-c2ccccc2)c2nc(Nc3ccc(N4CCC(N5CC(N(C)C)C5)CC4)cc3)ncc12 [Example 29] ?
< 5.52

* * *

Study system: CtermHisTag-mEGFR Wild type (Homo sapiens, UniProt P00533)
Assay method text: biochemical
pIC50: −log10 of the molar value.
Recorded pIC50 by entry

>  <Compound>
C#Cc1cc(=O)n(-c2ccc(NC(=O)COC(C)=O)cc2)c2nc(Nc3ccccc3OC)ncc12

>  <pIC50>
5.00 to 6.00

$$$$
>  <Compound>
C#Cc1cc(=O)n(C2CCCC2)c2nc(Nc3ccccc3N3CCCC(CS(C)(=O)=O)C3)ncc12 (stereo not shown)

>  <pIC50>
< 5.00

$$$$
>  <Compound>
C#Cc1cc(=O)n(-c2ccccc2)c2nc(Nc3ccc(N4CCC(N5CC(COC)C5)CC4)cc3)ncc12

>  <pIC50>
> 6.00

$$$$
>  <Compound>
C#Cc1cc(=O)n(C2CCN(C)C2)c2nc(Nc3ccc(N4CCN(C)CC4)cc3)ncc12 (stereo not shown)

>  <pIC50>
< 5.00

$$$$
>  <Compound>
C#Cc1cc(=O)n(C)c2nc(Nc3ccc(N4CCN(C)CC4)c(NC(=O)CC)c3)ncc12

>  <pIC50>
> 6.00

$$$$

Fill in: pIC50 of "C#Cc1cc(=O)n(-c2ccccc2)c2nc(Nc3ccc(N4CCN(CCO)CC4)cc3)ncc12" is ___
> 6.00

Now the same for "C#Cc1cc(=O)n(C[C@@H]2CCC(=O)N2)c2nc(Nc3ccc(N4CCN(C)CC4)cc3)ncc12"
< 5.00

Further, for "C#Cc1cc(=O)n(-c2ccccc2)c2nc(Nc3ccc(N4CCNCC4)cc3)ncc12" ?
> 6.00
